Source listed as a melting point compilation (Tetko et al.; mined from patent text by program, amines drawn as free bases though some values may be those of a salt).

Catalogue of melting point values
quantity: melting point

- Cc1cccc(Cl)c1C(=O)N[C@@H](Cc1ccc(-c2cn(C)c(=O)n(C)c2=O)cc1)C(=O)O: 234 to 236 °C
- Cc1ccccc1Sc1c(N)cc(C(=O)O)cc1S(N)(=O)=O: 277 °C
- CCOC(=O)c1c(C(C)(C)O)nc(SC)n1Cc1ccc(-c2ccccc2-c2nnnn2C(c2ccccc2)(c2ccccc2)c2ccccc2)cc1: 125 to 127 °C
- COc1ccc(C2=NN(c3ccc(OCCBr)cc3)C(=O)[C@@H]3CC=CC[C@H]23)cc1OC: 40 to 45 °C
- NC(=O)C1Cc2c([nH]c3ccccc23)CN1 (stereo unspecified): 212 to 216 °C
- O=C1c2ccccc2SC(O)(c2ccccc2)C2CCCN12 (stereo unspecified): 137 to 141 °C
- O=C(Nc1ccccc1O)C1CCc2nc[nH]c2C1 (stereo unspecified): 203 to 205 °C
- Cc1nc(N2CCN(Cc3ccc(F)cc3)C2=O)sc1C(=O)NCc1cnccn1: 185 to 187 °C
- O=C1N(N2CCCCC2)c2ccccc2C1(Cc1ccnc(F)c1)c1ccccc1 (stereo unspecified): 129 to 132 °C
- O=C(Nc1cc(O)c(Cl)cc1O)c1ccc(O)c(F)c1: 254 to 256 °C
- O=C1Nc2nncn2CC1c1ccccc1 (stereo unspecified): 184 to 186 °C
- Cc1ccccc1OCCN1CCC(CNc2nc3ccccc3s2)CC1: 126 °C
- Cc1cccc(C)c1NC(=O)NO: 192 to 193 °C
- CN(C)C=Cc1nc2ccc(F)cc2c(=O)n1-c1ccccc1Cl: 210 to 211 °C
- CCCc1nc2c(N)nc3ccccc3c2n1CCCCN(OC)C(C)=O: 138 to 140 °C
- FC(F)(F)c1ccc(-c2ccc(Cl)nn2)cc1: 186 to 188 °C
- CC(C)NCC(O)COc1ccc(NC(=O)C(C)C)cc1C#N (stereo unspecified): 126 to 127 °C
- Oc1ncnc2c1c(Nc1ccccc1)nn2Cc1ccccc1: 246 to 247 °C
- CC(C)COc1ccc(-n2ncc(C(=O)O)c2Cl)cc1C#N: 216 to 218 °C
- COc1ccc(CS(=O)(=O)c2cc3ccc(OC)cc3oc2=O)cc1: 179 to 180 °C
- CCn1c(COCc2ccccc2)nc(C(C)C)c1Sc1cccc(Cl)c1: 99 to 100 °C

---

List of melting point values.
quantity: melting point

* CC(C)c1nc(-n2cnc3ccccc32)sc1/C=C/C(=O)O | 262 to 264 °C
* Cc1oc(-c2ccccc2)nc1COc1ccc(Cn2cc(CCC(=O)O)c(-c3ccccc3)n2)nc1 | 175 to 176 °C
* O=C(O)CCc1oc(=S)[nH]c1-c1ccc(Cl)cc1 | 196 to 197 °C
* CCCCOc1ccc(C(=O)CCCCC(=O)O)cc1 | 95 °C
* N#CC1(c2ccc(OCc3ccc(F)cc3)c(OC3CCCC3)c2)CCC(=NO)CC1 (stereo not given) | 55 to 57 °C

---

The entries below are paired with their reported melting point.
quantity: melting point

- O=C(O)c1cc(Cl)cc(Oc2cccc(C(F)(F)F)c2)n1: 81 to 82 °C
- Oc1ccccc1N1CCC(CNC[C@H]2COc3ccc(Cl)cc3O2)CC1: 84 to 86 °C
- CC(C)(C)c1ccnc(NC(=O)Nc2ccc(Oc3ccc(Cl)cc3)cc2)c1: 198 to 199 °C
- O=C(c1ccc(OC(F)(F)F)cc1)c1sccc1O: 67 to 70 °C
- CCCn1c(=O)c2nc(-c3ccc(/C=C/C(=O)O)cc3)[nH]c2n(C)c1=O: > 300 °C
- COc1ccc(C(=O)NCCCSc2ccncc2)cc1: 121 to 122 °C
- C(#Cc1ccc2[nH]ccc2c1)CCN1CC=C(c2ccccc2)CC1: 173 to 174 °C
- COc1ccc(C(=O)Nc2ccccc2)cc1NCc1cc(Cl)cc(Cl)c1: 164 to 165 °C
- CCOC(=O)C1C=Nc2c(c(F)cc3cc(C(=O)N(C)Cc4ccccc4)cnc23)C1=O (stereo not given): 201 to 203 °C
- COc1ccc(-c2nnc(Cl)cc2C)cc1: 132 °C

---

Overview of reported melting point across a group of compounds:
quantity: melting point

* CC(=O)c1ccc(S(=O)(=O)NCc2cccnc2)cc1 | 143 to 144 °C
* CCOC(=O)c1cc2n(c1)CNc1ccccc1-2 | 140 to 141 °C
* CCOC(=O)c1cc2cc(C)c(C)cc2[nH]1 | 164 °C
* C[C@@H]1O[C@@]1(Cn1cncn1)c1ccc(Cl)cc1 | 51 to 53 °C
* COCOCc1nc(N)c2nccnc2n1 | 129 to 131 °C
* COc1ccc(O)c(Cc2cccc(C(F)(F)F)c2)c1 | 188 to 190 °C

---

// values below are reported melting point
quantity: melting point

* CCCCCCCCCCCCOc1ccc(C(=O)O)o1 | 122 to 123 °C
* O=c1ccccn1[C@@H]1c2cc(C(F)(F)F)ccc2OC(CF)(CF)[C@H]1O (relative stereo) | 210 to 212 °C
* C[C@@H](n1cnc2cc(NC(=O)C(F)(F)F)c(F)cc2c1=O)[C@](O)(Cn1cncn1)c1ccc(F)cc1F | 130 to 132 °C
* CCC(N=O)C(C)(C)Cl (stereo not given) | 85 to 86 °C
* COC(=O)COc1ccc(C(=O)C(C)N2CCN(c3ccncc3)CC2)cc1 (racemic) | 81 to 83 °C

---

quantity: melting point

- CCN(C)c1nc2sc3c(NCc4ccncc4)ncnc3c2c2c1CCC(C)(C)C2: 207 °C
- COc1ccc(C=Cc2cc(OC)cc(OC)c2)cc1: 55 to 56 °C
- CCN1CCN(CC)c2cc([N+](=O)[O-])ccc2C1=O: 79 to 80 °C
- C#CC1(C)OC(=O)Nc2ccc(-c3cccc(Cl)c3)cc21 (stereo not given): 185 to 186 °C
- COc1ccc(C2=CS(=O)CCC2)cc1OC1CCCC1 (stereo not given): 96 to 98 °C

---

This section presents compounds with their documented melting point values.
quantity: melting point

* COc1ccc(C(CCC(C)=O)C(=O)c2ccc(OCc3ccccc3)cc2)cc1 (stereo not given) | 93 to 94 °C
* CC(C)c1cc(-c2ccc3c(c2)OCO3)nc(Cl)c1C#N | 171 to 173 °C
* OC(Cc1ccc2ccccc2n1)C(Cl)(Cl)Cl (stereo not given) | 156 to 158 °C
* C=Cc1ccc(CN2CCNCCNCC2)cc1 | 56 to 59 °C
* O=S(=O)(Nc1ccccc1O)c1ccccc1 | 140 °C
* Cc1cc(-n2ncc(-c3ccc(S(C)(=O)=O)cc3)c(-c3ccc(F)cc3)c2=O)ccc1F | 168 to 170 °C
* CC(C)(C)ON=C(C(=O)O)c1cccs1 | 106 to 107 °C
* CCCC(=O)c1cnc2c(C)cccc2c1Nc1ccccc1CC | 117 to 119 °C
* O=C(O)C1Sc2ccccc2-c2[nH]c3ccccc3c21 (stereo not given) | 142 °C
* NS(=O)(=O)c1cccc(-c2cc(-c3nc(-c4ccc(C(F)(F)F)cc4)cc(C(F)(F)F)n3)ccn2)c1 | 237 °C
* COc1ccc(-c2[nH]nc3c2C(=O)c2c(NC(=O)Cc4ccc5c(c4)OCCO5)cccc2-3)cc1 | 297 °C
* CN(CC(=O)O)C(=O)CCc1nc2c(F)c(F)cc(F)c2s1 | 138 to 140 °C
* COc1ccc(-c2cnc3cc4cnn(CCOC(C)=O)c4cc3n2)cc1F | 164 to 166 °C
* CCCc1c(OCc2c(CCCCc3cccnc3)ccc(C(N)=O)c2OCC)ccc(C(C)=O)c1O | 107 to 109 °C
* c1ccc(-c2ccc(Nc3nccc(-c4ccc(-c5ccc(N(c6ccccc6)c6ccccc6)cc5)cc4)n3)cc2)cc1 | > 300 °C
* CC(=O)NCC1CN(c2ccc(N3CCC(C4NN=C(N)S4)CC3)c(F)c2)C(=O)O1 (stereo not given) | 168 to 169 °C
* COC(=O)N1C[C@@H](C#N)[C@H](c2ccc(OC)c(OC3CCCC3)c2)C1 (relative stereo) | 101 to 104 °C
* Cc1ccnc(P(=O)(O)O)c1 | 273 °C
* CCCCCCCSc1ccc(-c2ccc(C#N)cc2)cc1 | 64.4 °C
* O=C(Oc1ccccc1)C(I)=C(I)I | 83 to 84.5 °C

---

quantity: melting point

• O=Cc1ccc(O)c(OCc2ccccc2)c1 = 123 to 124 °C
• CC(C)(C)OC(=O)NC1CCCCCC=CC2CC2(C(=O)NS(=O)(=O)C2CC2)NC(=O)C2CC(OC(=O)c3ccc4nccnc4c3)CN2C1=O (stereo not given) = 158 to 160 °C
• CCOC(=O)C(C=O)c1csc(NC=O)n1 (stereo not given) = 179 to 180 °C
• CC(C)(C)OC(=O)NCC(=O)NCc1ccc(Nc2n[nH]c3ncnc(Nc4cccc(Cl)c4)c23)cc1 = 205 °C
• COc1ccc(F)c(NCc2ccccc2)c1 = 56 to 58 °C
